Value source: patent US20120301476A1

Target: T1, human CAPRIN-1 protein on the cell surfaces of human cancer cell lines and in human cancer tissues (human, UniProt Q14444 2-709)
T1 sequence (looked up): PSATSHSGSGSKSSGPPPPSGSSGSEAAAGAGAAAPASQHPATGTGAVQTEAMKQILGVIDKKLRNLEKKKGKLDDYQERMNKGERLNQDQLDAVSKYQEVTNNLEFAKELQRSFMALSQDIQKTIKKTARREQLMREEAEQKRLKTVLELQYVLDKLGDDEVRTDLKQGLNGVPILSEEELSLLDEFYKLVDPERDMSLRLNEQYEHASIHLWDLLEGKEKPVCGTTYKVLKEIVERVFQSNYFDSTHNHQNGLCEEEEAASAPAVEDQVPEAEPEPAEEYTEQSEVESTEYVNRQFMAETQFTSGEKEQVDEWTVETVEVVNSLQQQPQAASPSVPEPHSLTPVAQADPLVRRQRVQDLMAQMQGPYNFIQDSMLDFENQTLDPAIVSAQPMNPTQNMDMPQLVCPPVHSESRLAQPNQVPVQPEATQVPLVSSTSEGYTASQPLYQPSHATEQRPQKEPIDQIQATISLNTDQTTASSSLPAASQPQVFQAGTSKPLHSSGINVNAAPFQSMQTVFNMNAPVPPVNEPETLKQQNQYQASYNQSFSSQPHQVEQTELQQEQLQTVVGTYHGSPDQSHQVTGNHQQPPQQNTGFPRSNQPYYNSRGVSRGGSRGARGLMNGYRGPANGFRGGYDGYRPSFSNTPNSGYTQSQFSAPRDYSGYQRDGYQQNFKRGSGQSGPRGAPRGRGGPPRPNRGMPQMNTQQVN
Assay: cell-based or functional assay

{"binder": "anti-CAPRIN-1 mouse monoclonal antibody #4 (antibody, V domains shown) VH: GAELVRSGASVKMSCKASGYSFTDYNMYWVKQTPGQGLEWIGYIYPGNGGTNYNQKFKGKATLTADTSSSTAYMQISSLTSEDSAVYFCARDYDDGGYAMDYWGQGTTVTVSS VL: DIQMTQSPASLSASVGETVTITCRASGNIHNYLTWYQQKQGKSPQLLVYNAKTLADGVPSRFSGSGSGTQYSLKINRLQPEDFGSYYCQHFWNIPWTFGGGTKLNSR", "cytotoxic activity (ADCC) against SW756": "≥ 16%"}
